Known Population Pyknosed Nuclei (%) of a selection of compounds
tested on: U2OS; test: Multiplex assay against U2OS; assay type: toxicity, cell-based; conditions: human, 24 h, 10 µM, compound concentration 10 uM, replicate 1
// return numeric value only (unit: %, not printed)

Examples with their reported Population Pyknosed Nuclei (%) follow.
Nc1c(C(=O)NCc2ccc(C(=O)NCCCC3CCCCC3)cc2)cnn1-c1ccccc1 [SR-318] :: 19
CN1CCCC(n2nc(Cc3ccc(Cl)cc3)c3ccccc3c2=O)CC1.Cl (centres undefined) [AZELASTINE HYDROCHLORIDE] :: 24

Task: Recorded Population Pyknosed Nuclei (%) for c1cn2cc(-c3ccc4cn[nH]c4c3)nc(Nc3ccc(N4CCOCC4)cc3)c2n1 [ENTOSPLETINIB] , please?
Output: 57

Task: Recorded Population Pyknosed Nuclei (%) for OC1(c2ccc(Cl)cc2)CCN(Cc2c[nH]c3ccccc23)CC1 , please?
Output: 56

* * *

Known Population Apoptotic (%) of a selection of compounds
tested on: U2OS; assay: Multiplex assay against U2OS; format: toxicity, cell-based; conditions: human, 24 h, 10 µM, compound concentration 10 uM, replicate 2
// return numeric value only (unit: %, not printed)

Examples with their reported Population Apoptotic (%) follow.
Cc1nc(-c2cn3c(n2)-c2ccc(-c4cnn(C(C)(C)C(N)=O)c4)cc2OCC3)n(C(C)C)n1 [TASELISIB] :: 60
CN(C)C(=O)/C(C#N)=C/c1ccc(-c2nc3cnc4[nH]ccc4c3n2C2CCCCC2)o1 :: 44

Next compound, please.
Task: Recorded Population Apoptotic (%) for C=CC(=O)Nc1cccc(C(=O)Nc2ccc(Nc3cc(-c4[nH]c(SC)nc4C)ccn3)cc2)c1 , please?
Output: 40

* * *

tested on: U2OS; experiment: Multiplex assay against U2OS; assay type: toxicity, cell-based; conditions: human, 12 h, 1 µM, compound concentration 1 uM, replicate 1
Endpoint: Population Mitochondria Different-Phenotype (%)
// return numeric value only (unit: %, not printed)

C=CC(=O)Nc1cc2c(Nc3ccc(F)c(Cl)c3)ncnc2cc1OCCCN1CCOCC1.Cl.Cl [CANERTINIB DIHYDROCHLORIDE] :: 100
COc1cccc([C@@H](C)NCCCc2ccccc2Cl)c1.Cl [TECALCET HYDROCHLORIDE] :: 34

Task: Recorded Population Mitochondria Different-Phenotype (%) for C[C@@H](NCCCc1cccc(C(F)(F)F)c1)c1cccc2ccccc12.Cl [CINACALCET HYDROCHLORIDE] , please?
Output: 30

Task: Recorded Population Mitochondria Different-Phenotype (%) for CN(C)CC#Cc1ccc(OCCCc2sc(N3CCc4cccc(C(=O)Nc5nc6ccccc6s5)c4C3)nc2C(=O)O)c(F)c1 [A-1155463] , please?
Output: 14

Task: Recorded Population Mitochondria Different-Phenotype (%) for Cc1nc(-c2ccc(-c3ccc(C(=O)N4CCc5cc6c(cc54)C4(CCN(C)CC4)CO6)cc3)c(C)c2)no1 [SB-224289] , please?
Output: 43

* * *

test system: Fibroblast; experiment: Multiplex assay against human fibroblast; format: toxicity, cell-based; conditions: 24 h, 1 µM, compound concentration 1 uM, replicate 2
Known Total Cell Count of a selection of compounds
Kindly provide the number alone.

C=CC(=O)Nc1cc2c(Nc3ccc(F)c(Cl)c3)ncnc2cc1OCCCN1CCOCC1.Cl.Cl [CANERTINIB DIHYDROCHLORIDE] :: 81
OC1(c2ccc(Cl)cc2)CCN(Cc2c[nH]c3ccccc23)CC1 :: 77
CC[C@H](C)C(=O)O[C@H]1C[C@@H](C)C=C2C=C[C@H](C)[C@H](CC[C@@H]3C[C@@H](O)CC(=O)O3)[C@H]21 [LOVASTATIN] :: 93
Cc1csc2c(N[C@@H](C)CN3CCN(S(=O)(=O)c4ccc(Cl)c(Cl)c4)CC3)ncnc12 :: 64
COc1cccc([C@@H](C)NCCCc2ccccc2Cl)c1.Cl [TECALCET HYDROCHLORIDE] :: 95

Task: Form field - read-out: Total Cell Count; system: Fibroblast; submitted item: C=CC(=O)Nc1cccc(C(=O)Nc2ccc(Nc3cc(-c4[nH]c(SC)nc4C)ccn3)cc2)c1
Output: 122

Task: Form field - read-out: Total Cell Count; system: Fibroblast; submitted item: C[C@@H](NCCCc1cccc(C(F)(F)F)c1)c1cccc2ccccc12.Cl [CINACALCET HYDROCHLORIDE]
Output: 53

Task: Form field - read-out: Total Cell Count; system: Fibroblast; submitted item: COc1cc(-n2cnc3cc(-c4ccc(Cl)cc4)sc3c2=O)ccc1OCCN1CCCC1
Output: 83

* * *

tested on: Fibroblast; experiment: Multiplex assay against human fibroblast; type: toxicity, cell-based; conditions: 48 h, 10 µM, compound concentration 10 uM, replicate 2
Endpoint: Population Apoptotic (%)

Examples with their reported Population Apoptotic (%) follow.
COc1cccc([C@@H](C)NCCCc2ccccc2Cl)c1.Cl [TECALCET HYDROCHLORIDE] :: 0%
CN(C)CC#Cc1ccc(OCCCc2sc(N3CCc4cccc(C(=O)Nc5nc6ccccc6s5)c4C3)nc2C(=O)O)c(F)c1 :: 95%
CN(C)C(=O)N[C@H]1CC[C@H](CCN2CCN(c3cccc(Cl)c3Cl)CC2)CC1.Cl [CARIPRAZINE HYDROCHLORIDE] :: 33%

Next molecule, please.
Task: Recorded Population Apoptotic (%) for COc1ncc(-c2ccc3nccc(-c4ccnnc4)c3c2)cc1NS(=O)(=O)c1ccc(F)cc1F , please?
Output: 0%

* * *

system: Fibroblast; assay: Multiplex assay against human fibroblast; format: toxicity, cell-based; conditions: 24 h, 1 µM, compound concentration 1 uM, replicate 2
Endpoint: Population Apoptotic (%)
// return numeric value only (unit: %, not printed)

Examples with their reported Population Apoptotic (%) follow.
Cl.N#Cc1ccc2[nH]cc(CCCCN3CCN(c4ccc5oc(C(N)=O)cc5c4)CC3)c2c1 [VILAZODONE HYDROCHLORIDE] :: 60
OC1(c2ccc(Cl)cc2)CCN(Cc2c[nH]c3ccccc23)CC1 :: 20

Next molecule, please.
Task: Recorded Population Apoptotic (%) for Cc1csc2c(N[C@@H](C)CN3CCN(S(=O)(=O)c4ccc(Cl)c(Cl)c4)CC3)ncnc12 , please?
Output: 60

* * *

Known Population Tubulin-Different-Phenotype (%) of a selection of compounds
test system: HEK-293T; assay: Multiplex assay against HEK293T; assay type: toxicity, cell-based; conditions: human, 12 h, 1 µM, compound concentration 1 uM, replicate 2;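 also: share of the cells with healthy nuclei that show this phenotype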
Number plus unit, in that order.

Examples with their reported Population Tubulin-Different-Phenotype (%) follow.
O=C1NCN(c2ccccc2)C12CCN(CCCOc1ccc(F)cc1)CC2 [SPIRAMIDE] :: 20%
CN1CCC[C@@H]1CCO[C@](C)(c1ccccc1)c1ccc(Cl)cc1.O=C(O)/C=C/C(=O)O [CLEMASTINE FUMARATE] :: 52%
CN(C)C(=O)/C(C#N)=C/c1ccc(-c2nc3cnc4[nH]ccc4c3n2C2CCCCC2)o1 :: 37%
OC1(c2ccc(Cl)cc2)CCN(Cc2c[nH]c3ccccc23)CC1 :: 42%
CC(C)NCC(O)COc1ccc(CCOCC2CC2)cc1.Cl (configuration not stated) [BETAXOLOL HYDROCHLORIDE] :: 19%
NC(=O)Nc1cc(-c2cccc(F)c2)sc1C(=O)N[C@H]1CCCNC1 :: 25%
Cc1csc2c(N[C@@H](C)CN3CCN(S(=O)(=O)c4ccc(Cl)c(Cl)c4)CC3)ncnc12 :: 64%
CC(C)C(=O)Nc1n[nH]c2cc(-c3cccc(NS(=O)(=O)C4CC4)c3)ccc12 :: 7%
Cc1nc(Nc2n[nH]c3c2CN(C(=O)N[C@H](CN(C)C)c2ccccc2)C3(C)C)c2sccc2n1 :: 6%
CNc1nc(NCc2ccc(NS(C)(=O)=O)cc2Cl)cc(-c2ccccn2)n1 :: 23%

Task: Recorded Population Tubulin-Different-Phenotype (%) for CN1CCCC(n2nc(Cc3ccc(Cl)cc3)c3ccccc3c2=O)CC1.Cl (configuration not stated) [AZELASTINE HYDROCHLORIDE] , please?
Output: 68%

Task: Recorded Population Tubulin-Different-Phenotype (%) for Cc1nc(-c2cn3c(n2)-c2ccc(-c4cnn(C(C)(C)C(N)=O)c4)cc2OCC3)n(C(C)C)n1 , please?
Output: 13%

Task: Recorded Population Tubulin-Different-Phenotype (%) for Cc1[nH]c(/C=C2\C(=O)Nc3ccc(S(=O)(=O)N(C)c4cccc(Cl)c4)cc32)c(C)c1C(=O)N1CCN(C)CC1 , please?
Output: 71%

Task: Recorded Population Tubulin-Different-Phenotype (%) for C=CC(=O)Nc1cc2c(Nc3ccc(F)c(Cl)c3)ncnc2cc1OCCCN1CCOCC1.Cl.Cl [CANERTINIB DIHYDROCHLORIDE] , please?
Output: 97%

Task: Recorded Population Tubulin-Different-Phenotype (%) for Cc1nc(-c2ccc(-c3ccc(C(=O)N4CCc5cc6c(cc54)C4(CCN(C)CC4)CO6)cc3)c(C)c2)no1 , please?
Output: 66%

Task: Recorded Population Tubulin-Different-Phenotype (%) for CC(C)(O)CNc1ncc(-c2ccnc(Nc3ccnc(Cl)c3)n2)c(CC2CC2)n1 , please?
Output: 31%

Task: Recorded Population Tubulin-Different-Phenotype (%) for CN1CCN(c2ccc(OC(F)(F)F)c(Nc3ncc4c(n3)-c3c(c(C(N)=O)nn3CCO)CC4)c2)CC1 , please?
Output: 24%

src = ChEMBL document CHEMBL4689842
